Each recorded value in this set is attributed to ChEMBL document CHEMBL1926636.

Measured zone of inhibition at 10 µg/mL values are reported for all entries that follow.
Test system: Pseudomonas aeruginosa
assay_overview: Antibacterial activity against Pseudomonas aeruginosa ATCC 9027 at 10 ug/mL after 24 hrs by disc diffusion method
Format: functional
experimental_setup: ATCC 9027, 24 h, read-out: IZ

Reference set (2 entries):
In: Which zone of inhibition at 10 µg/mL value is on record for COc1ccc(C2ONC3=C2C(c2ccccc2)N(Cc2ccccc2)C2CCCCC32)cc1 (stereo not drawn) ?
Out: 4 mm

In: Which zone of inhibition at 10 µg/mL value is on record for c1ccc(CN2C(c3ccccc3)C3=C(NOC3c3ccc4c(c3)OCO4)C3CCCCC32)cc1 (stereo not drawn) ?
Out: 5 mm

In the following, a different compound is considered.
In: Which zone of inhibition at 10 µg/mL value is on record for Clc1ccccc1C1ONC2=C1C(c1ccccc1)N(Cc1ccccc1)C1CCCCC21 (stereo not drawn) ?
Out: 6 mm

====

Measured zone of inhibition at 10 µg/mL values are reported for all entries that follow.
Tested on: Pseudomonas aeruginosa
assay_overview: Antibacterial activity against Pseudomonas aeruginosa ATCC 9027 at 10 ug/mL after 24 hrs by disc diffusion method
Format: functional
experimental_setup: ATCC 9027, 24 h, read-out: IZ

In: Which zone of inhibition at 10 µg/mL value is on record for COc1ccc(C2ONC3=C2C(c2ccccc2)N(Cc2ccccc2)C2CCCCC32)cc1OC (stereo not given) ?
Out: 4 mm

In: Which zone of inhibition at 10 µg/mL value is on record for `O=C(O)c1cn(C2CC2)c2cc(N3CCNCC3)c(F)cc2c1=O` ?
Out: 8 mm

In: Which zone of inhibition at 10 µg/mL value is on record for c1ccc(CN2C(c3ccccc3)C3=C(NOC3c3ccccc3)C3CCCCC32)cc1 (stereo not given) ?
Out: 3 mm

In: Which zone of inhibition at 10 µg/mL value is on record for c1ccc(CN2C(c3ccccc3)C3=C(NOC3c3ccccn3)C3CCCCC32)cc1 (stereo not given) ?
Out: 7 mm

In the following, a different compound is considered.
In: Which zone of inhibition at 10 µg/mL value is on record for Clc1ccc(C2ONC3=C2C(c2ccccc2)N(Cc2ccccc2)C2CCCCC32)cc1 (stereo not given) ?
Out: 5 mm
